B1: SLC35F2 (parent)
chain: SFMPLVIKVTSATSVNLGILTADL

# Variants of: B1
# assay details: protein stability index of a GFP-peptide fusion (GPS, HEK-293T) (PSI 1-6); higher = more stable;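 also: lentivirally expressed fusions sorted by FACS into six bins by GFP to DsRed ratio, PSI derived from sequencing read proportions per bin multiplied by bin number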
# measurement setup: c terminus: a fixed tail appended
Provide the reported protein stability index of each item.
Number only, no unit.

# protein stability index (variant: N16F ) is 3.69

# protein stability index (variant: V15H ) is 2.88

# protein stability index (variant: L24R ) is 1.89

# protein stability index (variant: T21E ) is 2.86

# protein stability index (variant: L17D ) is 2.04

# protein stability index (variant: K8V ) is 3.52

# protein stability index (variant: L5Q ) is 2.19

# protein stability index (variant: L24G ) is 3.04

# protein stability index (variant: V6P ) is 2.06

# protein stability index (variant: V9G ) is 2.17

# protein stability index (variant: T10R ) is 2.69

# protein stability index (variant: G18F ) is 3.03

# protein stability index (variant: D23A ) is 2.74

# protein stability index (variant: I7T ) is 2.19

# protein stability index (variant: D23N ) is 3.05

# protein stability index (variant: D23F ) is 2.91

# protein stability index (variant: A22Q ) is 2.86

# protein stability index (variant: T13R ) is 3.63

# protein stability index (variant: T21F ) is 1.85

# protein stability index (variant: P4L ) is 2.34

# protein stability index (variant: L20S ) is 2.8

# protein stability index (variant: L24M ) is 3.01

# protein stability index (variant: T10G ) is 3.08

# protein stability index (variant: A22M ) is 3.85

# protein stability index (variant: I19N ) is 2.86

# protein stability index (variant: S14A ) is 2.47

# protein stability index (variant: T13L ) is 2.94

# protein stability index (variant: V6I ) is 2.65

# protein stability index (variant: L24A ) is 3.11

# protein stability index (variant: P4R ) is 5.37

# protein stability index (variant: T21K ) is 2.52

# protein stability index (variant: G18K ) is 2.9

# protein stability index (variant: L17V ) is 2.44

# protein stability index (variant: S1R ) is 2.98

# protein stability index (variant: T10S ) is 2.65

# protein stability index (variant: A22N ) is 2.95

# protein stability index (variant: I19M ) is 3.44

# protein stability index (variant: V6T ) is 2.76

# protein stability index (variant: L17K ) is 3.17

# protein stability index (variant: M3S ) is 3.76

# protein stability index (variant: I19R ) is 2.08

# protein stability index (variant: K8Y ) is 3.43

# protein stability index (variant: P4S ) is 1.73

# protein stability index (variant: L24D ) is 1.55

# protein stability index (variant: T13C ) is 3.16

# protein stability index (variant: M3G ) is 3.41

# protein stability index (variant: L20N ) is 1.97

# protein stability index (variant: L20K ) is 1.93

# protein stability index (variant: V9H ) is 1.52

# protein stability index (variant: V9A ) is 2.07

# protein stability index (variant: L24E ) is 2.21

# protein stability index (variant: T21L ) is 2.33

# protein stability index (variant: T21S ) is 3.64

# protein stability index (variant: V15L ) is 3.01

# protein stability index (variant: I19E ) is 2.08

# protein stability index (variant: S14R ) is 2.42

# protein stability index (variant: L17C ) is 3.14

# protein stability index (variant: T13E ) is 2.6

# protein stability index (variant: V6W ) is 4.41

# protein stability index (variant: D23Y ) is 3.03

# protein stability index (variant: A22S ) is 2.88

# protein stability index (variant: F2G ) is 3.11

# protein stability index (variant: M3L ) is 2.73

# protein stability index (variant: I7Q ) is 2.26

# protein stability index (variant: A12N ) is 2.58

# protein stability index (variant: L5R ) is 1.65

# protein stability index (variant: L17Q ) is 3.52

# protein stability index (variant: T13P ) is 3.09

# protein stability index (variant: A12E ) is 3.09

# protein stability index (variant: T10W ) is 3.57

# protein stability index (variant: S11Q ) is 2.23

# protein stability index (variant: S14F ) is 2.94

# protein stability index (variant: I7R ) is 2.16

# protein stability index (variant: L17M ) is 3.87

# protein stability index (variant: V15K ) is 3.59

# protein stability index (variant: V9R ) is 1.81

# protein stability index (variant: I19Y ) is 2.38

# protein stability index (variant: T10V ) is 3.4

# protein stability index (variant: T21Q ) is 2.79

# protein stability index (variant: N16D ) is 2.94

# protein stability index (variant: F2H ) is 1.71

# protein stability index (variant: A12T ) is 2.89

# protein stability index (variant: K8I ) is 3.97

# protein stability index (variant: L20G ) is 2.2

# protein stability index (variant: L24T ) is 2.24

# protein stability index (variant: L5C ) is 3.74

# protein stability index (variant: V15T ) is 3.48

# protein stability index (variant: I19P ) is 2.37

# protein stability index (variant: T10C ) is 2.93

# protein stability index (variant: F2V ) is 2.68

# protein stability index (variant: L5H ) is 2.28
